Values compiled from BigSolDB 2.1.

Conditions: in THF, 298.15 K
readout: solubility (mole fraction)

Input: Query (molecule): `CC(=O)c1c(C)c2cnc(Nc3ccc(N4CCNCC4)cn3)nc2n(C2CCCC2)c1=O` ; field requested: solubility (mole fraction)
Output: 9.81e-05

* * *

Details: in o-xylene, 333.15 K
readout: solubility (mole fraction)
One number for each entry.

Input: Query (compound): `CC(=O)c1c(C)c2cnc(Nc3ccc(N4CCNCC4)cn3)nc2n(C2CCCC2)c1=O` ; field requested: solubility (mole fraction)
Output: 9.67e-05

* * *

Conditions: in ethanol, 333.15 K
readout: solubility (mole fraction)

Input: Query (molecule): `CC(=O)c1c(C)c2cnc(Nc3ccc(N4CCNCC4)cn3)nc2n(C2CCCC2)c1=O` ; field requested: solubility (mole fraction)
Output: 7.27e-05
